Source: patent EP4048276B1

Protocol: Solubility study of ticagrelor drug substance in water and pH media
Format: physicochemical
Test Parameters: pH 1.2 medium, pH 1.2, simulated gastric fluid; read-out: Average solubility, pH: 1.2
Assay Endpoint: solubility
Quick note: number first, unit second.

Prompt line: Which solubility value belongs to CCCSc1nc(N[C@@H]2C[C@H]2c2ccc(F)c(F)c2)c2nnn([C@@H]3C[C@H](OCCO)[C@@H](O)[C@H]3O)c2n1 [Ticagrelor] ?
Response line: 14 µg/mL
